Sourced from ChEMBL document CHEMBL1157539

tested on: Plasmodium falciparum; assay: GSK_TCMDC: Inhibition of Plasmodium falciparum 3D7 in whole red blood cells, using parasite LDH activity as an index of growth. Test compounds present at 2uM; assay type: functional
Hi there, I'd appreciate the recorded Inhibition for every entry that follows.
Report as a plain number; the unit % is understood.

Problem: Answer with reported Inhibition of "CC(C)Cc1cn(-c2nc(-c3nc4ccccc4[nH]3)cs2)c2cc(Cl)ccc12.Cl"
Result: 99

Problem: Using known records, supply Inhibition for O=c1cc(NCCCNC2CCCc3c2cc(Cl)c(Cl)c3Cl)[nH]c2ccccc12 (centres undefined)
Result: 100

Problem: Given the compound "COc1ccc(C(=O)Nc2ccc3nc(N4CCCCC4)cc(C)c3c2)cc1OC" , write its reported Inhibition.
Result: 92

Problem: Please give measured Inhibition of the following entry: "Cl.c1ccc(-c2cc(NCCCCNc3cc(-c4ccccc4)nc4ccccc34)c3ccccc3n2)cc1"
Result: 100

Problem: Name the recorded Inhibition of the compound listed here: Cc1cc(NC(=O)c2coc3cc(F)c(N4CC(C)N(C)C(C)C4)cc23)cnc1-c1ccc(C#N)cc1.Cl (centres undefined)
Result: 99

Problem: Report measured Inhibition; entry is COc1ccc(CC2(c3ccc(F)cc3)N=C(N)N(CCCc3ccc(F)c(F)c3)C2=O)cc1.O=C(O)C(F)(F)F (centres undefined)
Result: 98

Problem: For "NC1=NC(c2ccccc2)(c2ccccc2)C(=O)N1CC1CCC1.O=CO" , write its Inhibition.
Result: 96

Problem: Entry "CC(=NNC(S)=NC(c1ccccc1)c1ccccc1)c1ccccn1" needs its Inhibition filled in; supply it.
Result: 98

Problem: For the compound CC(C)c1ccc(CN2CCCCC(NC(=O)c3cc(-c4cccc(F)c4)cs3)C2)cc1.O=C(O)C(F)(F)F (centres undefined) , give its reported Inhibition.
Result: 94

---

system: HepG2; experiment: GSK_TCMDC: Percent inhibition of human HepG2 cell line. Test compounds present at 10uM.; assay type: functional
Record form. Attribute: Inhibition. Fill in for each entry.

Problem: Please report Inhibition with HepG2 for item "CN(C)CC(=O)Nc1ccc(-c2ccc3ccnc(N)c3c2)cc1.O=C(O)C(F)(F)F" .
Result: 69%

Problem: State Inhibition on HepG2. Entry: Cc1ccc(Nc2nccc(NCC(O)c3ccc(C(F)(F)F)cc3)n2)cc1 (stereo not drawn)
Result: 53%

Problem: Report value: Inhibition, system: HepG2, molecule: "CCCCCCCCCN(CCC)C(=O)[C@@H]1OC(C(=O)OC(c2ccccc2)c2ccccc2)=C[C@H](NC(=O)OC(C)(C)C)[C@H]1NC(C)=O"
Result: 0%

Problem: Report measured Inhibition on HepG2; entry: "O=C(N[C@H]1CCN(CCc2ccc(O[C@H]3CCNC3)c(F)c2)C1)c1ccc(Cl)c(Cl)c1.O=C(O)C(F)(F)F"
Result: 39%

Problem: Provide Inhibition, recorded with HepG2, of "CC(C)=CCc1c(-c2ccc(O)cc2O)oc2c3c(cc(O)c2c1=O)OC(C)(C)C=C3"
Result: 1%

Problem: Give Inhibition; test system HepG2; molecule "CCN(CC)CCN(CCN(CC)CC)c1ccc2c(c1)Sc1c(Cl)ccc(Cl)c1S2.Cl"
Result: 31%

Problem: Report measured Inhibition on HepG2; entry: CC(CNCc1cn(Cc2cc(Br)cc(Br)c2)c2ccccc12)CNc1cc(=O)c2ccccc2[nH]1 (stereo not drawn)
Result: 10%

Problem: Recall the reported Inhibition of "CCc1cc(NC(=O)Nc2ccnc3ccccc23)ccc1OC.Cl" on HepG2 and write it down.
Result: 0%

Problem: Jot down Inhibition (HepG2) of O=C(NC1CCC(N2CCN(c3cccc(C(F)(F)F)c3)CC2)CC1)c1cc2ccccc2[nH]1 (stereo not drawn) .
Result: 23%

Problem: Give Inhibition for Br.CC1(C)N=C(N)N=C(N)N1OCC1COc2ccccc2O1 (stereo not drawn) tested on HepG2.
Result: 56%

Problem: Write down the reported Inhibition (system: HepG2) of "CC(C)c1ccc(NC(=O)c2ccc(C(=O)NCC3CCN(CC4CCCCC4)CC3)cc2)cc1.O=C(O)C(F)(F)F"
Result: 26%

Problem: Write down the reported Inhibition (system: HepG2) of COc1cc(C(=O)N2CCOC(CCN3CCC[C@H]3C(=O)Nc3ccccc3)(c3ccc(Cl)c(Cl)c3)C2)cc(OC)c1OC (stereo partly drawn)
Result: 3%

Problem: Retrieve Inhibition on HepG2; query CC(C)c1ccc(CN2CCC(CNC(=O)c3cc(-c4cccc(Cl)c4)cs3)C2)cc1.O=C(O)C(F)(F)F (stereo not drawn)
Result: 42%

Problem: Lab note: record Inhibition of "CN(C)CCOc1ccc2c(c1)OC(C)(C)C=C2c1cccc2ccccc12.Cl" tested on HepG2.
Result: 66%

Problem: Report Inhibition from HepG2 testing of Cc1cccc(C)c1N1CCN(C2CCC(NC(=O)/C=C/c3ccccc3)CC2)CC1 (stereo not drawn)
Result: 38%

Problem: Provide Inhibition, system HepG2, entry O=C(Nc1ccc(Cl)c(Cl)c1)C1CCC(=O)N1[C@@H](Cc1ccccc1)C(=O)NCCc1ccc(Cl)cc1 (stereo partly drawn)
Result: 3%

Problem: Output reported Inhibition of the molecule O=C(O)C(F)(F)F.OC1CCCN(Cc2ccc(-c3cccc(-c4nc5ccccc5[nH]4)c3)cc2)C1 (stereo not drawn) on HepG2.
Result: 14%

Problem: For HepG2, give Inhibition of the listed molecule: "Cc1cccc(Oc2cccc3[nH]nc(N)c23)c1"
Result: 6%

---

Please go through the items and note down their Inhibition.
test system: Plasmodium falciparum; experiment: GSK_TCMDC: Inhibition of Plasmodium falciparum Dd2 in whole red blood cells, using parasite LDH activity as an index of growth. Test compounds present at 2uM; format: functional

Problem: Return Inhibition (reported value) for this compound: "Cl.OCCNc1nc(Nc2cccc(O)c2)nc2ccccc12"
Result: 55%

Problem: Provide Inhibition value for the following compound: "Cc1ccc(CNC(=O)c2cc3c(=O)n4cccc(C)c4nc3n(CCN3CCOCC3)c2=N)cc1"
Result: 21%

Problem: Specify measured Inhibition for "CS(=O)(=O)Nc1ccc(-c2cnc3[nH]cc(-c4ccc(C(=O)O)cc4)c3c2)cc1" .
Result: 45%

Problem: Give the reported Inhibition for this compound. "Cc1ccc(Nc2nc(N/N=C/c3ccccc3[N+](=O)[O-])nc(Nc3ccc([N+](=O)[O-])cc3)n2)cc1C"
Result: 81%

Problem: Kindly indicate its recorded Inhibition. Item: "COc1ccc2nccc([C@@H](O)CN3CCC(NC(=O)c4[nH]c5ccccc5c4-c4ccccc4)CC3)c2c1"
Result: 68%

Problem: Give a short answer stating reported Inhibition for "Cc1cccc2nc(-c3cccc(-c4cccc(NC(=O)Nc5ccccc5)c4)c3)[nH]c12" .
Result: 64%

Problem: // Input: "O=C(O)C(F)(F)F.c1ccc(-c2ccc(CNCc3ccc(-c4cccc(-c5nc6ccccc6[nH]5)c4)cc3)s2)nc1" . Output its Inhibition only.
Result: 80%

Problem: For the compound "FC(F)(F)c1ccc2[nH]c(-c3ccc(-c4ccc(CNCc5ccccc5)cc4)cc3)nc2c1.O=C(O)C(F)(F)F" , report Inhibition.
Result: 96%

---

tested on: Plasmodium falciparum; test: GSK_TCMDC: Inhibition of Plasmodium falciparum 3D7 in whole red blood cells, using parasite LDH activity as an index of growth. Test compounds present at 2uM; assay type: functional
Exercise: state measured Inhibition for each of the compounds provided.
Return type: number; implicit unit %.

Problem: Provide Inhibition, tested on Plasmodium falciparum, for COc1ccc2nccc(CCN3CC(O)C(CNCc4ccc5c(n4)NC(=O)CS5)C3)c2n1.Cl (stereo unspecified) .
Result: 86

Problem: Please report Inhibition with Plasmodium falciparum for item "O=C(Cc1ccc(NC(=O)c2ccc(O)c(-c3ccc(Cl)c(Cl)c3)c2)cc1)NCCN1CCOCC1" .
Result: 94

Problem: Recall the reported Inhibition of "COc1cccc(NC(=O)[C@H](C(C)C)n2c(=O)[nH]c3ccccc3c2=O)c1" on Plasmodium falciparum and write it down.
Result: 100

Problem: Please indicate recorded Inhibition of "Cc1cc(=NN=Cc2ccccc2Cl)c2cc(F)ccc2[nH]1" measured with Plasmodium falciparum.
Result: 100

Problem: # return Inhibition of Cl.O=C(/C=C/c1ccc(F)cc1)NC1CCC(CCN2CCCN(c3ccc(C(F)(F)F)cn3)CC2)CC1 (stereo unspecified) (system: Plasmodium falciparum)
Result: 97

Problem: Write Inhibition of "O=C(O)C(F)(F)F.c1ccc2[nH]c(-c3ccc(-c4ccc(CNC5CC5)cc4)s3)nc2c1" ; system used: Plasmodium falciparum
Result: 91

Problem: For Plasmodium falciparum, give the measured Inhibition of the entry "CCc1ccc(CN2CCC(NC(=O)c3ccc(-c4ccccc4F)s3)CC2)cc1.O=C(O)C(F)(F)F"
Result: 80

Problem: Fill: Inhibition (Plasmodium falciparum) for this compound O=C(/C=C/C=C/c1ccc(Cl)c(Cl)c1)NCCCCCN1CCCC2CCCCC21 (stereo unspecified)
Result: 91

Problem: Report Inhibition on Plasmodium falciparum for this entry: "COc1cc(OC)cc(C(=O)Nc2nc(-c3ccc(NC(=O)c4ccccc4)cc3)cs2)c1"
Result: 88

Problem: Give Inhibition for "COc1ccc(-c2cc(-c3ccc(S(C)(=O)=O)cc3)cnc2N)cn1" tested on Plasmodium falciparum.
Result: 94

Problem: For Plasmodium falciparum, give the measured Inhibition of the entry CC1CCCN(S(=O)(=O)c2cc(Br)cc3c2N(C(=O)C2CC2)CC3)C1 (stereo unspecified)
Result: 83

Problem: Jot down Inhibition (Plasmodium falciparum) of "CN1CCCN(Cc2ccc(-c3cccc(NC(=O)c4ccc(Cl)cc4)c3)cc2)CC1.O=C(O)C(F)(F)F" .
Result: 98

Problem: System Plasmodium falciparum. Read-out Inhibition. Item "CC(C)CNC(=O)c1ccc(-c2cccc(CN3CCC(N4CCCC4)CC3)c2)nc1.O=C(O)C(F)(F)F" . Report value.
Result: 81

Problem: Under Plasmodium falciparum: report Inhibition of "O=C(Nc1ccccc1)N(Cc1cccc(-c2ccc(CNCCc3ccccc3)cc2)c1)C1CCN(Cc2ccccc2)CC1.O=C(O)C(F)(F)F" .
Result: 100

Problem: Provide the reported Inhibition (system: Plasmodium falciparum) for NCC1CCCN1Cc1ccc(-c2cccc(-c3nc4cc(F)ccc4[nH]3)c2)cc1.O=C(O)C(F)(F)F (stereo unspecified)
Result: 100

Problem: Check Plasmodium falciparum data and give Inhibition for "O=c1c2ccc(F)cc2sn1-c1ccc(Cl)cc1" .
Result: 98

Problem: Provide Inhibition, recorded with Plasmodium falciparum, of CC1CN(c2cnn(Cc3ccc(NC(=O)Nc4cccc(C(F)(F)F)c4)cc3)c(=O)c2Cl)CC(C)N1.O=C(O)C(F)(F)F (stereo unspecified)
Result: 86

Problem: # return Inhibition for "Cc1ccc(S(=O)(=O)n2nccc2-c2c(-c3ccc(Cl)cc3)noc2C)cc1" , test system: Plasmodium falciparum
Result: 97

Problem: State recorded Inhibition with Plasmodium falciparum, entry "COCCN1CCC(N(Cc2ccc(-c3ccc(OC(F)(F)F)cc3)cc2)C(=O)Cn2c(CCc3cccc(F)c3F)cc(=O)c3ccccc32)CC1.O=C(O)C(O)C(O)C(=O)O" , no comment.
Result: 96

Problem: Enter measured Inhibition, system Plasmodium falciparum, for the compound shown: "Cc1cc2ncc(C(N)=O)c(Nc3ccc(N4CCOCC4)cc3)c2cc1S(C)(=O)=O.Cl"
Result: 100

Problem: Provide measured Inhibition on Plasmodium falciparum for Cn1c(NC(=O)C2CCC(CNC(=O)c3ccc(O)c(-c4cccc([N+](=O)[O-])c4)c3)CC2)nc2ccccc21 (stereo unspecified) please.
Result: 95

Problem: Param request: Inhibition | system Plasmodium falciparum | item "CN(C)c1ccc(CN2CCC(NC(=O)c3ccc(-c4cccc(Cl)c4)s3)CC2)cc1.O=C(O)C(F)(F)F"
Result: 93

Problem: Please indicate recorded Inhibition of "CCNc1cc(C(=O)N[C@@H](Cc2ccccc2)[C@H](O)CN[C@@H]2CCc3ccccc32)cc(N2CCCCS2(=O)=O)c1" measured with Plasmodium falciparum.
Result: 98

Problem: Report the value of Inhibition obtained on Plasmodium falciparum for COc1cc(C)c(C(O)CNC(C)CCc2ccccc2)cc1C.Cl (stereo unspecified) .
Result: 98

Problem: // fetch Inhibition for "CC(=NNC(=N)N)c1ccc2c(c1)Cc1ccccc1-2.Cl" ; system: Plasmodium falciparum
Result: 100

Problem: Given "CC(=O)Nc1ccc(OCCN(Cc2ccccc2C(F)(F)F)c2ccc(C#N)c(C(F)(F)F)c2)c(Cl)c1" , report its Inhibition on Plasmodium falciparum.
Result: 98

Problem: Report Inhibition from Plasmodium falciparum testing of "CC1(C)N=C(N)N=C(N)N1c1ccc(Cl)c(Cl)c1.Cl"
Result: 95

Problem: Fill: Inhibition (Plasmodium falciparum) for this compound "Cc1cccc2nc(-c3ccc(-c4ccc(NC(=O)NCc5ccc(F)cc5)cc4)cc3)[nH]c12"
Result: 100

Problem: Quote Inhibition with test system Plasmodium falciparum for "CCn1c(Sc2ccc([N+](=O)[O-])c(C#N)c2)nnc1-c1ccc(Cl)cc1"
Result: 93

Problem: Param request: Inhibition | system Plasmodium falciparum | item "Cc1cc(N)c2cc(NC(=O)/C=C/c3ccc([N+](=O)[O-])cc3)ccc2n1"
Result: 100

Problem: Param request: Inhibition | system Plasmodium falciparum | item "CN(C)Cc1ccc(-c2ccc3c(Nc4ccc(Oc5ccccn5)cc4)ccnc3c2)o1"
Result: 100

Problem: Find the measured Inhibition of "Cc1c(F)cc(C(=O)NC2CC2)cc1-c1ccc2c(cnn2S(=O)(=O)c2ccc(F)c(F)c2)c1" with Plasmodium falciparum as test system.
Result: 91

Problem: Recall the reported Inhibition of "N#Cc1ccc(N(CCOc2ccc(Cl)cc2)Cc2ccccc2C(F)(F)F)cc1C(F)(F)F" on Plasmodium falciparum and write it down.
Result: 91

Problem: // output Inhibition; input "COc1cc2c(cc1C(F)(F)F)N(C(=O)Nc1cc(Br)cc(-c3cccnc3)c1)CC2" ; system Plasmodium falciparum
Result: 96

Problem: // output Inhibition; input "CCOCc1cnc(C)nc1NCC(=O)c1c(C)[nH]c2cc(C)ccc12.I" ; system Plasmodium falciparum
Result: 89

Problem: Provide Inhibition, tested on Plasmodium falciparum, for "COc1ccc(C(=O)Nc2ccc3oc(-c4ccc(C(F)(F)F)cc4)cc3c2)cc1CCCN(C)C" .
Result: 98
